B1: Twister Ribozyme (parent)
chain: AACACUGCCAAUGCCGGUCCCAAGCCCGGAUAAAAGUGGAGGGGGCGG

Variants of: B1
Assay: self-cleavage, relative activity (ratio to wild type); higher = more cleavage; co-transcriptional

mutant_designation	self-cleavage
C9U C21U	0.0907
C14A C25U	0.699
C9U G48U	0.646
G42C G44A	0.396
C3G G16U	0.608
A11C G29U	0.681
A30G A33G	0.806
C21U U31G	0.115
G38A G39A	0.4
C27A G36U	0.128
G43U C46G	0.409
C8G G17A	0.0824
A32C A35G	0.8
G28C G38C	0.531
C25G G39C	0.109
C5G G13A	0.115
C26G G48U	0.146
G29U G45A	0.812
A34C G48C	0.2
G24U C46U	0.0749
C14A U37C	0.619
A22G U31A	0.196
C25A A34G	0.1
C20G G43U	0.0978
U6G A30U	0.687
G16U A22U	0.759
U12A C21A	0.152
G16U C21G	0.101
C3A A10G	0.322
U6A A10U	1
C19A G36U	0.0959
A10G A22C	0.818
U31A G45C	0.347
G24A A35G	0.0812
G7U A22G	0.0616
A10U G38U	0.863
C8U G16A	0.442
C9G G42A	0.12
